RUN_DESCRIPTION: In vivo pharmacokinetic study in rats
COND: both sexes, Sprague-Dawley, plasma, po; rat, i.g. 40 mg/kg, single dose; n = 6, Mean ± SD
ASSAY_ENDPOINT: CL/F (mL/min/kg)
// units = mL/min/kg; emit number, no label

The molecule identified as COc1ccc2c3ccnc(C)c3n(CCCOC(=O)/C=C/c3ccccc3[N+](=O)[O-])c2c1 registered its CL/F at 4.33

====

As shown below, each of these compounds has a reported MIC value.
Test system: Pseudomonas aeruginosa CVCC 3359 (PA)
RUN_DESCRIPTION: MIC, microplate dilution method
Assay type: cell-based
COND: Gram-negative, Mueller-Hinton broth, 37 °C, 18–24 h, read-out: MIC PA
Procedure: According to microplate dilution method, all the prepared compounds were screened for their in vitro antibacterial activity. […] The antibacterial efficiency of all prepared compounds was determined using the microplate dilution method. […] The MIC was determined for compounds by observing change of clarity in the broth. […]
// units = µg/mL; emit number, no label

// known answers, use as guide
MOLECULE: COc1ccc2c3ccnc(C)c3n(CCCCOC(=O)/C=C/c3cc(OC)c(OC)c(OC)c3)c2c1
TEST_TARGET: Pseudomonas aeruginosa CVCC 3359 (PA)
READOUT_UNIT: µg/mL
MIC: 450

MOLECULE: COc1ccc2c3ccnc(C)c3n(CCCOC(=O)/C=C/c3ccccc3[N+](=O)[O-])c2c1
TEST_TARGET: Pseudomonas aeruginosa CVCC 3359 (PA)
READOUT_UNIT: µg/mL
MIC: 219

MOLECULE: COc1ccc2c3ccnc(C)c3n(CCCCCCOC(=O)/C(=C/c3cc(OC)c(OC)c(OC)c3)c3ccc(OC)c(OC)c3)c2c1
TEST_TARGET: Pseudomonas aeruginosa CVCC 3359 (PA)
READOUT_UNIT: µg/mL
MIC: 212

MOLECULE: COc1ccc2c3ccnc(C)c3n(CCCOC(=O)/C=C/c3cc(OC)c(OC)c(OC)c3)c2c1
TEST_TARGET: Pseudomonas aeruginosa CVCC 3359 (PA)
READOUT_UNIT: µg/mL
MIC: 319

MOLECULE: COc1ccc2c3ccnc(C)c3n(CCCCOC(=O)/C(=C/c3cc(OC)c(OC)c(OC)c3)c3ccc(OC)c(OC)c3)c2c1
TEST_TARGET: Pseudomonas aeruginosa CVCC 3359 (PA)
READOUT_UNIT: µg/mL
MIC: 212

Next:
The compound identified as O=C(O)/C=C/c1ccccc1 registered its MIC at 1120
